Listed binders paired with reported IC50 FR3 (FGF9), FDCP-FGFR3 proliferation assay
Biological target: FGFR3 (wild type) on cells (human, UniProt P22607 23-806)
Sequence (P22607 23-806 limits assumed): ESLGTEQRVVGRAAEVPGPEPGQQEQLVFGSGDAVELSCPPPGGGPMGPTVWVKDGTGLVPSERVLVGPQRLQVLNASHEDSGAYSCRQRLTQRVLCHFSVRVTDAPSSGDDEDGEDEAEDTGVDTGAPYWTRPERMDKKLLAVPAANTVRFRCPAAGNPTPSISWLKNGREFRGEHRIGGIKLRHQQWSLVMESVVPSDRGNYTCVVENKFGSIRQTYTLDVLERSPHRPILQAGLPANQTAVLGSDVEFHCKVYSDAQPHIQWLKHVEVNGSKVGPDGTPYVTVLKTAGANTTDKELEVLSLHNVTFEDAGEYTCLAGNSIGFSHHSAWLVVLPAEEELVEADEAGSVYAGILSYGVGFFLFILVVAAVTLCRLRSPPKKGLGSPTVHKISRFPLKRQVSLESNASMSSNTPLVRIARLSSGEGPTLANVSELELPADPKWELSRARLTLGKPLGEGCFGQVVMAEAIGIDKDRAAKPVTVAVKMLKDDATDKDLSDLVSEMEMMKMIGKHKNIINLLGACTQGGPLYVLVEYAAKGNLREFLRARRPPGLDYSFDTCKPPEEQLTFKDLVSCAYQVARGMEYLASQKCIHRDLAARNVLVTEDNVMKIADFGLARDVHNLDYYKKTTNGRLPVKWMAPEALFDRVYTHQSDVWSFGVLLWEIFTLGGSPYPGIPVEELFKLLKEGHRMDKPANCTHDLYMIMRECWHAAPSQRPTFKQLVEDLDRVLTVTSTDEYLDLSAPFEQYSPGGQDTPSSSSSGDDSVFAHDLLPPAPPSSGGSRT
Test: cell-based or functional assay
Just the number please, in nM, no unit attached.

Use these answered entries as a reference point.
MSPRO29 (Fab, V domains shown) VH: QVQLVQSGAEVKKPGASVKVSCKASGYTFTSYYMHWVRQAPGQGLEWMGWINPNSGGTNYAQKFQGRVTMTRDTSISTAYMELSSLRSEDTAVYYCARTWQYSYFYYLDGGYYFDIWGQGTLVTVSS VL: DIVLTQSPATLSLSPGERATLSCRASQSVSSSYLAWYQQKPGQAPRLLIYGASSRATGVPARFSGSGSGTDFTLTISSLEPEDFATYYCQQTNNAPVTFGQGTKVEIKR : 20
MSPRO55 (Fab, V domains shown) VH: QVQLVQSGAEVKKPGASVKVSCKASGYTFTSYYMHWVRQAPGQGLEWMGWINPNSGGTNYAQKFQGRVTMTRDTSISTAYMELSSLRSEDTAVYYCARSMNSTMYWYLRRVLFDHWGQGTLVTVSS VL: DIALTQPASVSGSPGQSITISCTGTSSDVGGYNYVSWYQQHPGKAPKLMIYDVSNRPSGVSNRFSGSKSGNTASLTISGLQAEDEADYYCQSYDMYNYIVFGGGTKLTVLG : 34
MSPRO26 (Fab, V domains shown) VH: QVQLVQSGAEVKKPGASVKVSCKASGYTFTSYYMHWVRQAPGQGLEWMGWINPNSGGTNYAQKFQGRVTMTRDTSISTAYMELSSLRSEDTAVYYCARGYWYAYFTYINYGYFDNWGQGTLVTVSS VL: DIALTQPASVSGSPGQSITISCTGTSSDVGGYNYVSWYQQHPGKAPKLMIYDVSNRPSGVSNRFSGSKSGNTASLTISGLQAEDEADYYCQSYDNNSDVVFGGGTKLTVLG : 70

Okay, next one:
Lab book: IC50 FR3 (FGF9), FDCP-FGFR3 proliferation assay of MSPRO28 (Fab, V domains shown) VH: QVQLVQSGAEVKKPGSSVKVSCKASGGTFSSYAISWVRQAPGQGLEWMGGIIPIFGTANYAQKFQGRVTITADESTSTAYMELSSLRSEDTAVYYCARGGGWVSHGYYYLFDLWGQGTLVTVSS VL: DIQMTQSPSSLSASVGDRVTITCRASQGISSYLAWYQQKPGKAPKLLIYAASSLQSGVPSRFSGSGSGTDFTLTISSLQPEDFAVYYCFQYGSIPPTFGQGTKVEIKR noted as 50

Where these numbers come from: patent US20090202547A1
